Items are presented alongside their recorded pIC50.
Biological target: His6-Flag-TEV-NLRP3 (134-1036) (Homo sapiens)
Construct: fused on or other part: N-terminal His6 tag, Flag tag and TEV cleavage site
Sequence (Q96P20 134-1036 limits assumed): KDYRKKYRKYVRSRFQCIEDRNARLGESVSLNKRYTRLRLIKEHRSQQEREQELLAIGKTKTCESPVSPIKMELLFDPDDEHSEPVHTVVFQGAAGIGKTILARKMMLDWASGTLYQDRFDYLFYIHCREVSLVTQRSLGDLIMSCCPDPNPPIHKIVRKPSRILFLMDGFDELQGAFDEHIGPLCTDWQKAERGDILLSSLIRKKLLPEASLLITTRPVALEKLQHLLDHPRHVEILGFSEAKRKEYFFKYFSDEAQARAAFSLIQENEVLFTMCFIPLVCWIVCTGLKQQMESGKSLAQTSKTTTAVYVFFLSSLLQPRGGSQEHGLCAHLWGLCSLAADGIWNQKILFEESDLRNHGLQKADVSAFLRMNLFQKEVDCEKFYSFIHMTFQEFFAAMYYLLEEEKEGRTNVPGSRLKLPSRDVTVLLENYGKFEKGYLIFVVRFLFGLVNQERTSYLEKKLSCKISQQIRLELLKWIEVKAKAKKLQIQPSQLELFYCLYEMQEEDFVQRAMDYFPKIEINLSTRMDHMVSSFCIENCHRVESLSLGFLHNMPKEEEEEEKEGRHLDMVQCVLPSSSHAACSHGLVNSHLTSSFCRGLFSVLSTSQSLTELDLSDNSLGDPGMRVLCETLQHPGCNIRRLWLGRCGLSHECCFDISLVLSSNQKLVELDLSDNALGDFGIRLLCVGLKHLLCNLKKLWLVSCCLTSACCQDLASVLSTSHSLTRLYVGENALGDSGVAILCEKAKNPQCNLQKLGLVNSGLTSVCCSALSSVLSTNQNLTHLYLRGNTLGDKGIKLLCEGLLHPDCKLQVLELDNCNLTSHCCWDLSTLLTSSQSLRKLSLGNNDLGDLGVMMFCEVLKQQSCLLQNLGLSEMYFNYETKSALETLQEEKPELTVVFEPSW
Test: NLRP3 fluorescence polarization (FP) binding assay, competition with probe NP3-301
Settings: competition with NP3-301 for binding to NLRP3 (134-1036), 30 nM protein
pIC50: −log10 of the molar value.

Record excerpt, results attached:
Cc1cc(C(F)(F)F)cc(O)c1-c1ccc2oc(N3CCO[C@@H](C)C3)nc2n1 = ≥ 7.00
CC(=O)N1C[C@@H]2CN(c3nc4nc(-c5c(C)cc(C(F)(F)F)cc5O)ccc4o3)C[C@@H]2C1 = ≥ 7.00
CCN1C[C@H](F)C[C@@H](Nc2nc3nc(-c4c(C)cc(C(F)(F)F)cc4O)ccc3o2)C1 = ≥ 7.00
Cc1cc(C(F)(F)F)cc(O)c1-c1ccc2oc(NC3CCN(S(C)(=O)=O)CC3)nc2n1 = 6.30 to 7.00
Cc1cc(C(F)(F)F)cc(O)c1-c1ccc2oc(N[C@@H]3CCCN(C(C)C)C3)nc2n1 = ≥ 7.00

Asked: Item `Cc1cc(C(F)(F)F)cc(O)c1-c1ccc2oc(NC[C@@H]3COCCN3C(=O)C3CC3)nc2n1` with His6-Flag-TEV-NLRP3 (134-1036) (Homo sapiens) - pIC50?
Given back: ≥ 7.00

Asked: Would you kindly repeat that for `Cc1cc(C(F)(F)F)cc(O)c1-c1ccc2oc(N3CCCOCC3)nc2n1` ?
Given back: ≥ 7.00

Asked: Another compound: `CC(=O)N1CCC(Nc2nc3nc(-c4c(C)cc(C(F)(F)F)cc4O)ccc3o2)CC1`
Given back: 6.30 to 7.00

Asked: And then `Cc1cc(C)c(-c2ccc3oc(N4CCS(=O)(=O)CC4)nc3n2)c(O)c1` , what is it?
Given back: 6.30 to 7.00

Asked: Please give the result for `Cc1cc(C(F)(F)F)cc(O)c1-c1ccn2nc(N[C@@H]3CCCN(CCO)C3)nc2n1` too.
Given back: ≥ 7.00

Asked: What do you get for `CCS(=O)(=O)N1CCN(c2nc3nc(-c4c(C)cc(C(F)(F)F)cc4O)ccc3o2)[C@@H](C)C1` ?
Given back: 6.30 to 7.00

Asked: Then `Cc1cc(C(F)(F)F)cc(O)c1-c1ccc2oc(N[C@@H]3CCCN(C4CC4)C3)nc2n1` ?
Given back: ≥ 7.00

Asked: Also `Cc1cc(C(F)(F)F)cc(O)c1-c1ccc2oc(N[C@@H]3CCCN(CC(C)(C)O)C3)nc2n1` ?
Given back: ≥ 7.00

Asked: Also, `CCN1C[C@H](Nc2nc3nc(-c4c(C)cc(C(F)(F)F)cc4O)ccc3o2)CC(F)(F)C1` please.
Given back: ≥ 7.00

Asked: Then what about the compound `CC(=O)N1CCC2(CC1)CN(c1nc3nc(-c4c(C)cc(C(F)(F)F)cc4O)ccc3o1)CCO2` ?
Given back: 6.30 to 7.00

Asked: How about `CCS(=O)(=O)N1CCN(c2nc3nc(-c4c(C)cc(C(F)(F)F)cc4O)ccc3o2)C[C@@H]1C` ?
Given back: ≥ 7.00
